Sourced from patent US20260365734

target: human PD-L1 ECD (human, UniProt Q9NZQ7); test: BLI
Sequence (Q9NZQ7 19-238): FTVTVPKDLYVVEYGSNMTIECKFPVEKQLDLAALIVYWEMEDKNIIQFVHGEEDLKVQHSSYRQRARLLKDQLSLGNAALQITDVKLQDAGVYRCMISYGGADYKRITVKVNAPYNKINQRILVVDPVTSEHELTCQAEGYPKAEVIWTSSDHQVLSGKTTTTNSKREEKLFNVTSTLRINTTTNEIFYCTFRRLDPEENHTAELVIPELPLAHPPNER
Value type: Kd (nM)

1. R2-5C12 (antibody, V domains shown) VH: QVQLVESGGGLVQAGGSLRLSCAASGFSASDVVMAWYRQAPGKQREFVANIAARGSTDYANSVKGRFTISRDNAKNTVYLQMNSLKSDDTAVYYCNALVWNGSSYNNWGQGTQVTVSS
2. R2-1F4 (antibody, V domains shown) VH: QVQLVESGGGLVQAGGSLRLSCAASGFSASDVVMAWYRQAPGKQREFVANIAASSTTRYADSVKGRFTISRDDAKNTVSLQMNSLKSEDTAVYYCNALVWNGSSYNNWGQGTQVTVSS
3. R3-5F8 (antibody, V domains shown) VH: EVQLVESGGGLVQPGGSLRLSCVASGFDFSDTHMGWYRQAPGKERELVAIITSGGSTDYVDSVKGRFTISRDNAKNTVYLQMNSLKFEDTAVYYCNARRTTIYWGQGTQVTVSS
4. R3-3H1 (antibody, V domains shown) VH: QLQLVESGGGVVQPGGSLRLSCAASGIDFSDTHMGWYRQAPGKQRELVAIITSGGSTDYVDSVKGRFTISRDNAKNTVYLQMNSLKFEDTAVYYCNARRSTIYWGQGTQVTVSS
Q) Sort entries by Kd from minimum to maximum value. In plain terms: list the labels in the order you were asked to.
A) 3, 4, 2, 1
(3: 0.054 nM, 4: 1.2 nM, 2: 2.04 nM, 1: 5.01 nM)
